Each entry below carries its reported chromatographic logP.
assay: Log P measurement by HPLC on reversed phase columns (EEC directive 79/831 Annex V.A8); format: physicochemical; details: reversed phase HPLC column, LC-UV, neutral range, 0.001 molar ammonium acetate solution in water and acetonitrile as eluent (linear gradient 10% to 95% acetonitrile); read-out: LogP [b]
// print number alone

CCN(C)C=Nc1cc(Cl)c(C(C)c2ccccc2)cc1C (centres unmarked)	5.32

-- ask Identify chromatographic logP associated with the compound CCN(C)C=Nc1cc(Cl)c(Cc2ccccc2-c2ccccc2)cc1C
-- reply 6.02

-- ask Note chromatographic logP for the compound shown: CCN(C)C=Nc1cc(C)c(Cc2ccccc2)cc1C
-- reply 4.9

-- ask Note chromatographic logP for the compound shown: CCN(C)C=Nc1cc(C)c(Cc2ccccc2OC)cc1Cl
-- reply 4.45
